Entries annotated with measured GI50
# Tested on: SF-268
# assay.details: NCI tumour cell line growth inhibition, 48 h
The source made the active and inactive calls. Cut-off read from the data, not from the text of the source: active = GI50 up to about 1.1 µM and inactive = higher.
assay.metric: GI50

In [3]: df
Out[3]:
                                   compound       endpoint_value
0  C#CC(C)(C)OCCCCOc1cc(O)c2c(=O)c3ccccc3n(C)c2c1  > 100 µM (inactive)
1  O=c1nc(NC(c2ccccc2)(c2ccccc2)c2ccccc2)ccn1CCCl   17.2 µM (inactive)
2  CCC(=O)O[C@H]1CC[C@H]2[C@@H]3CCC4=C/C(=N/OC(=O)c5cccc6cc7ccccc7nc56)CC[C@]4(C)[C@H]3CC[C@]12C  > 100 µM (inactive)
3  CCCCC/N=C/c1c(O)c(O)c(C(C)C)c2cc(C)c(-c3c(C)cc4c(C(C)C)c(O)c(O)c(/C=N/CCCCC)c4c3O)c(O)c12    6.5 µM (inactive)
4  O=C(Nn1c(-c2ccccc2)nc2ccccc2c1=O)c1ccc(CS)cc1   26.2 µM (inactive)
5                     COc1ccc(CCn2cncn2)cc1  > 100 µM (inactive)
6  CCOC(OCC)C(CC)[Se]c1ccccc1 (stereo not drawn)   72.6 µM (inactive)
7  Cc1ccc2nc(Cl)c(/C=N/N3C(=O)/C(=C/c4cccc([N+](=O)[O-])c4)N=C3c3ccccc3)cc2c1   97.1 µM (inactive)
